System: MDA-N
method_description: NCI tumour cell line growth inhibition, 48 h
Activity calls are given as the source filed them. Rule as the data show it: active = GI50 up to about 1.1 µM and inactive = higher.
Valid outcomes are listed here; reply with one: yes (active), no (inactive)

**Query** Lab log entry: `O=c1[nH]cc(/N=C/c2cc(Cl)ccc2O)c(=O)[nH]1` — outcome as called in the assay?
**Result** no

**Query** Lab log entry: CCN(CC)C1Oc2cc3c(cc2C(c2cc(OC)c(OC)c(OC)c2)C1C)OCO3 (configuration not stated) — outcome as called in the assay?
**Result** yes

**Query** Lab log entry: `Oc1ccc(/C=N/c2nccs2)c(O)c1` — outcome as called in the assay?
**Result** no

**Query** Lab log entry: `CCCCCCCCCCCCOc1ccc(/C=C/C2=[N+](CCCl)CCO2)cc1` — outcome as called in the assay?
**Result** no

**Query** Lab log entry: CC1(C)CCCC(C)(C2CCC3(C)C2C(O)CC2C4(C)CCC(O)C(C)(C)C4CCC23C)O1 (configuration not stated) — outcome as called in the assay?
**Result** no

**Query** Lab log entry: `CCCCNC(=O)Cn1c2ccc(Br)cc2c2nc3ccccc3nc21` — outcome as called in the assay?
**Result** no

**Query** Lab log entry: `Cn1c(=O)c2c(nc3n(Cc4ccccc4)c(=O)c(NCCBr)cn23)n(C)c1=O` — outcome as called in the assay?
**Result** no

**Query** Lab log entry: `C=CCn1c(=O)c(Br)nn(CCOCP(=O)(OCC)OCC)c1=O` — outcome as called in the assay?
**Result** no

**Query** Lab log entry: CC1CN=C(N(Cc2ccc(F)cc2)C(=O)Nc2ccc(Cl)cc2)S1 (configuration not stated) — outcome as called in the assay?
**Result** no

**Query** Lab log entry: `N=c1nc(N)nc(N)n1-c1ccc(S(N)(=O)=O)cc1` — outcome as called in the assay?
**Result** no

**Query** Lab log entry: Nc1nc2c(ncn2C2CCC(CO)O2)c(=O)n1C(=O)c1ccccc1 (configuration not stated) — outcome as called in the assay?
**Result** no

**Query** Lab log entry: `CCCCc1ccc(Nc2cc(=O)n(C)c(=O)[nH]2)cc1` — outcome as called in the assay?
**Result** no

**Query** Lab log entry: `Cc1nc(-c2cc3cc([N+](=O)[O-])ccc3oc2=O)cs1` — outcome as called in the assay?
**Result** no

**Query** Lab log entry: `O=C(/C=C/c1ccsc1)c1ccc(Cl)s1` — outcome as called in the assay?
**Result** no

**Query** Lab log entry: `C[n+]1c2ccccc2c(C(=O)Nc2ccc(S(=O)(=O)Nc3ncccn3)cc2)c2ccccc21` — outcome as called in the assay?
**Result** no

**Query** Lab log entry: CC(=O)NCC1OC2COC(c3ccccc3)OC2C(NC(=O)c2ccccc2)C1OC(=O)c1ccccc1 (configuration not stated) — outcome as called in the assay?
**Result** no

**Query** Lab log entry: `CN(C)CCN1C(=O)CC[C@@]2(C)C1=CC[C@@H]1[C@@H]2CC[C@@]2(C)[C@H]1CC[C@]2(C)O` — outcome as called in the assay?
**Result** no

**Query** Lab log entry: `Cc1n[n+](CC(=O)c2ccccc2)c2sc(N)nn12` — outcome as called in the assay?
**Result** no

**Query** Lab log entry: `COc1ccc(/C=C2\CN(C)Cc3c2nc(O)c(C#N)c3-c2ccc(OC)cc2)cc1` — outcome as called in the assay?
**Result** no

**Query** Lab log entry: `Cc1ccc2c(=O)c(-c3nnsn3)c[nH]c2n1` — outcome as called in the assay?
**Result** no

**Query** Lab log entry: NCCC(=O)NC(Cc1c[nH]cn1)C(=O)O (configuration not stated) — outcome as called in the assay?
**Result** no

**Query** Lab log entry: O=c1onc2n1-c1ccc(Cl)cc1C(=S)N1CSCC21 (configuration not stated) — outcome as called in the assay?
**Result** no

**Query** Lab log entry: `Nc1ccc(CCSSCCc2ccc(N)cc2)cc1` — outcome as called in the assay?
**Result** no

**Query** Lab log entry: `CC(C)N(Cc1ccccc1)S(=O)(=O)c1nc(C(C)(C)C)n[nH]1` — outcome as called in the assay?
**Result** no

**Query** Lab log entry: `CNC(=O)c1cc(NC(=O)N(CCC#N)CCN(C(=O)N[C@@H](Cc2ccccc2)C(=O)N[C@@H](CC(C)C)C(=O)NC)c2ccccc2)ccc1OC` — outcome as called in the assay?
**Result** no

**Query** Lab log entry: `Cc1ccsc1/C=N/NC1=NCCN1` — outcome as called in the assay?
**Result** no

**Query** Lab log entry: `c1ccc2cc(NCNc3ccc4ccccc4c3)ccc2c1` — outcome as called in the assay?
**Result** no

**Query** Lab log entry: `N#Cc1c(C#N)c(-c2ccccc2)n(/N=C\c2ccccc2)c1N` — outcome as called in the assay?
**Result** no

**Query** Lab log entry: `CCSc1c(C)c2c(n(Cc3ccc(OC)cc3)c1=O)Cc1ccccc1C2` — outcome as called in the assay?
**Result** no

**Query** Lab log entry: `Cc1nc(-c2ccccc2)c(-c2ccccc2)s1` — outcome as called in the assay?
**Result** no

**Query** Lab log entry: `C/C1=C\[C@H](C)C[C@H](C)OC(=O)C[C@H](c2ccc(O)cc2)NC(=O)[C@H](Cc2ccc(O)c(Br)c2)N(C)C(=O)[C@H](C)NC(=O)[C@@H](C)C1` — outcome as called in the assay?
**Result** no

**Query** Lab log entry: `CC(=O)c1ccc2c3c1[C@@H]1O[C@@H]1c1cccc(c1-3)[C@@H]1O[C@H]21` — outcome as called in the assay?
**Result** no

**Query** Lab log entry: `C=CCN1C[C@H](C)N([C@H](c2ccc(C(=O)N(CC)CC)cc2)c2cccc(OC)c2)C[C@H]1C` — outcome as called in the assay?
**Result** no

**Query** Lab log entry: `Cc1ccc(S(=O)(=O)c2scc(-c3ccccc3)c2C)cc1` — outcome as called in the assay?
**Result** no

**Query** Lab log entry: `C/C(=N/NC(=S)N1CCCCCC1)c1ccccc1O` — outcome as called in the assay?
**Result** no

**Query** Lab log entry: `Cc1ccc(NCCCN2CCN(CCCNc3ccc(C)c4sc5ccccc5c(=O)c34)CC2)c2c(=O)c3ccccc3sc12` — outcome as called in the assay?
**Result** no

**Query** Lab log entry: `O=C1C2=C(CC3=C(C2)CS(=O)(=O)C3)C(=O)C2=C1CC1=C(C2)CS(=O)(=O)C1` — outcome as called in the assay?
**Result** no

**Query** Lab log entry: `Cc1ccc(-c2c(C#N)c(-c3ccc([N+](=O)[O-])cc3)c(C#N)c(=O)n2NS(=O)(=O)c2ccc(C)cc2)cc1` — outcome as called in the assay?
**Result** no

**Query** Lab log entry: C=C1CC2(CC(c3ccccc3C)OC(c3ccccc3C)C2)OC1=O (configuration not stated) — outcome as called in the assay?
**Result** no

**Query** Lab log entry: Nc1ccn(C2CCC(CO)O2)c(=O)n1 (configuration not stated) — outcome as called in the assay?
**Result** no

**Query** Lab log entry: `Nc1nc(-c2ccccc2)nc2oc(-c3cccs3)nc12` — outcome as called in the assay?
**Result** no

**Query** Lab log entry: `CC[C@]1(O)C[C@H]2CN(CCc3c([nH]c4ccccc34)[C@@](C(=O)OC)(c3cc4c(cc3OC)N(C)[C@H]3[C@@](O)(C(=O)OC)[C@H](OC(C)=O)[C@]5(CC)C=CCN6CC[C@]43[C@@H]65)C2)C1` — outcome as called in the assay?
**Result** yes
